assay: activity coefficient (dimensionless); of the first substance listed, at infinite dilution; xn = mol fraction of the nth substance listed; conditions: 328.15 K; 101 kPa; Liquid; Chromatography; x1 = 0
Where activity coefficient equals or exceeds 3, the correct label is 1.0; where it does not, the label is 0.0.

>>> discrete_label("CCC(=O)CC [pentan-3-one] + CCCCCC[n+]1ccc2ccccc2c1.N#C[S-]")
0.0
>>> discrete_label("CCC(C)CC [3-methylpentane] + CCCCCC[n+]1ccc2ccccc2c1.N#C[S-]")
1.0
>>> discrete_label("CCC(C)(C)OC [2-methoxy-2-methylbutane] + CCCCCC[n+]1ccc2ccccc2c1.N#C[S-]")
1.0
>>> discrete_label("Cc1ccccc1C [1,2-dimethylbenzene] + CCCCCC[n+]1ccc2ccccc2c1.N#C[S-]")
0.0
